Test system: SNB-19 CNS
PROTOCOL SUMMARY: NCI tumour cell line growth inhibition, 48 h; in the data active = GI50 below about 0.43 µM; inactive = the rest
Classes used: y = active, n = inactive

>  <COMPOUND>
CC[C@@]1(O)C[C@H](OC2CC(N(C)C)C(O)C(C)O2)c2c(O)c3c(c(O)c2[C@H]1OC1CC(N(C)C)C(O)C(C)O1)C(=O)c1cccc(O)c1C3=O (stereo not given in full)

>  <DISCRETE LABEL>
y

$$$$
>  <COMPOUND>
Cc1ccc(C(=O)/C(=C/c2ccc([N+](=O)[O-])cc2)SCc2ccc(Cl)cc2)cc1

>  <DISCRETE LABEL>
n

$$$$
>  <COMPOUND>
OCc1ccc(N2CCC2c2ccc(F)cc2)cc1Cl (stereo not given)

>  <DISCRETE LABEL>
n

$$$$
>  <COMPOUND>
NC(=O)c1cccc2cn(-c3ccc([C@@H]4CCCNC4)cc3)nc12

>  <DISCRETE LABEL>
n

$$$$
>  <COMPOUND>
Cc1cc(I)cc(CN(C)CCCCN2CCCCC2)c1O

>  <DISCRETE LABEL>
n

$$$$
>  <COMPOUND>
O=S(=O)(NC1=NCCN1C(=S)SN1CCn2c1nsc2=S)c1ccc(OC(F)(F)F)cc1

>  <DISCRETE LABEL>
n

$$$$
>  <COMPOUND>
CC1(C)CCc2c(c3c(c4c(=O)c(O)c(-c5ccc(O)cc5)oc24)OC(C)(C)CC3)O1

>  <DISCRETE LABEL>
n

$$$$
>  <COMPOUND>
O=C1CC(c2ccc3c(c2)OCO3)Nc2ccccc21 (stereo not given)

>  <DISCRETE LABEL>
n

$$$$
>  <COMPOUND>
CSc1nc2c(c(=O)[nH]1)N=C1c3ccccc3C(=O)C1C(c1ccccc1)N2 (stereo not given)

>  <DISCRETE LABEL>
n

$$$$
>  <COMPOUND>
COc1cc(/C=N/NC(=O)c2ccc(C(F)(F)F)nc2Nc2ccc(Cl)cc2C)ccc1O

>  <DISCRETE LABEL>
n

$$$$
